# study-target: SpLsb1
# method: SPOT peptide array binding signal intensity (averaged, normalized) (arbitrary units (background-subtracted, floor 0; scale differs between SH3 domains)); higher = stronger binding of the SH3 domain to the peptide
# maps each entry to its SPOT peptide array binding signal intensity
attribute-measured: SPOT peptide array binding signal intensity

binder: GKKVRPLLVLLLSRA
test-result: ≤ 0

binder: MAMRPIPPLPTESEY
test-result: 67.8

binder: TTNRGPPPLPPRANV
test-result: 1680

binder: PELAPKREAPKPPAN
test-result: ≤ 0

binder: RRRIAYPFYPFKKLG
test-result: 1.5

binder: RSVKRPRRAPRPVVS
test-result: 214

binder: LLLLFVPDSPYDPAI
test-result: ≤ 0

binder: GDHPKGPPPPPPPPD
test-result: ≤ 0

binder: SSSSSPPPLPTRRDH
test-result: 1530

binder: RFKRHRLEFPFNESE
test-result: 10.8

binder: DDEDVPPQLPTRTKS
test-result: 27.5

binder: GRLRPKRIAPWHLIQ
test-result: 5.5

binder: NENKKLPPAPTVFGL
test-result: 0.5

binder: HAPPLPPTAPPPPSL
test-result: ≤ 0

binder: NILKRRPLKLEAPSK
test-result: 1

binder: RSKRLFPVRPMATAH
test-result: 3

binder: VDFTLPPPPPPPGLD
test-result: 0.5

binder: NSMRPPLLIPAATTK
test-result: 34.2

binder: QRIRKIPGIPLMSVG
test-result: 17

binder: RSLRKRPTSPSISGS
test-result: 17.8
